Consider the following binders and their measured Kd readings.
Molecular target: T1, human fibrinogen (human, UniProt P02671 20-644; P02675 31-491; P02679 27-437, limits assumed)
T1 construct: Coated on ELISA plates at 100 nM; also called Fg
T1 sequence (looked up) 1: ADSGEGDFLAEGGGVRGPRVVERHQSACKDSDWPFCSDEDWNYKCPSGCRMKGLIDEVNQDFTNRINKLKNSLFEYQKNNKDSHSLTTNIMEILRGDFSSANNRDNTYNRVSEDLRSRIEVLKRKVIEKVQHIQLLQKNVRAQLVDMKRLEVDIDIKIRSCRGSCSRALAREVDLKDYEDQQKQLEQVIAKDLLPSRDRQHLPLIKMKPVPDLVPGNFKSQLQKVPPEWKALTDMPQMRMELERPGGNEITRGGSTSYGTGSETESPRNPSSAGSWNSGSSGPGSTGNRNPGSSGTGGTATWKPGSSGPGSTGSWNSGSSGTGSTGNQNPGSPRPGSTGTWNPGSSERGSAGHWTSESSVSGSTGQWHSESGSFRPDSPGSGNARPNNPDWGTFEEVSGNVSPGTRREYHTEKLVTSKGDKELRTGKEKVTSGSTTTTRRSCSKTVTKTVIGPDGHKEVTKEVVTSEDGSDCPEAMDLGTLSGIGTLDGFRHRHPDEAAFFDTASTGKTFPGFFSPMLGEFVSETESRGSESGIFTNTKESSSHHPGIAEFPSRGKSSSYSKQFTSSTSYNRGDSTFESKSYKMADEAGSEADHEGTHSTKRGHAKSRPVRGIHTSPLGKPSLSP
T1 sequence (looked up) 2: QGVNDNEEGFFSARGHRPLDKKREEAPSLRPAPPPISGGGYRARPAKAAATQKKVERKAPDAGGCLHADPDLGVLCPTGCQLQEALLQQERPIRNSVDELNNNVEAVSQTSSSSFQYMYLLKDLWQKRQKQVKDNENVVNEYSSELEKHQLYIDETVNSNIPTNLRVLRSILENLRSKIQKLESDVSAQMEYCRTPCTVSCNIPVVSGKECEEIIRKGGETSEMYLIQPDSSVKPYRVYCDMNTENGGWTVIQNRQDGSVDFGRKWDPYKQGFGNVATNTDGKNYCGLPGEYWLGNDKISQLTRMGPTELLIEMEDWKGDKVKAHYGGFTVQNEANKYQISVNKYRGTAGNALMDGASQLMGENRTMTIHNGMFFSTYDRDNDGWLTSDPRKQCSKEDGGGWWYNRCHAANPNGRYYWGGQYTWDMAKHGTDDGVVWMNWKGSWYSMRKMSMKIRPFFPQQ
T1 sequence (looked up) 3: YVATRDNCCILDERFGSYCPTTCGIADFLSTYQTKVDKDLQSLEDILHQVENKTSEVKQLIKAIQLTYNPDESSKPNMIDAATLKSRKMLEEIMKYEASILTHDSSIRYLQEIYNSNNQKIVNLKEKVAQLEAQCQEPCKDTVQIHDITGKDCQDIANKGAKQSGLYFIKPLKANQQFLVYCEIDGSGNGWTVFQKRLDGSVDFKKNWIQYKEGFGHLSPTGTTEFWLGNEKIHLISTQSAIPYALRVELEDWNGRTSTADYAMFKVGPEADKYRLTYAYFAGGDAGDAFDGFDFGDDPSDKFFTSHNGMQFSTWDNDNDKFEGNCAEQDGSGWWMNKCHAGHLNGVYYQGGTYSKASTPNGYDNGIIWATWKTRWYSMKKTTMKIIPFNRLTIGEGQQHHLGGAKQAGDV
Experiment: ELISA; ECM protein coated at 100 nM, soluble protein 0-100 nM, one-site fit
ENDPOINT_NAME: Kd (nM)

{"BINDER": "PDGF-BB/PIGF123-141 (other, not shown: 6x histidine tag at the N-terminus) SLGSLAAAEPAVIAECKTRTEVFQISRNLIDRTNANFLVWPPCVEVQRCSGCCNNRNVQCRASQVQMRPVQVRKIEIVRKKPIFKKATVTLEDHLACKCETIVTPRPVTRRRPKGRGKRRREKQRPTD", "REPORTED_VALUE": 16.7}
{"BINDER": "IL-1Ra (murine wild-type interleukin-1 receptor antagonist) (ligand, also called wild-type IL-1Ra; IL-1 receptor antagonist) MRPSGKRPCKMQAFRIWDTNQKTFYLRNNQLIAGYLQGPNIKLEEKIDMVPIDLHSVFLGIHGGKLCLSCAKSGDDIKLQLEEVNITDLSKNKEEDKRFTFIRSEKGPTTSFESAACPGWFLCTTLEADRPVSLTNTPEEPLIVTKFYFQEDQ", "REPORTED_VALUE": 663}
{"BINDER": "IL-1Ra/PIGF123-141 (other) MNHKVHHHHHHMRPSGKRPCKMQAFRIWDTNQKTFYLRNNQLIAGYLQGPNIKLEEKIDMVPIDLHSVFLGIHGGKLCLSCAKSGDDIKLQLEEVNITDLSKNKEEDKRFTFIRSEKGPTTSFESAACPGWFLCTTLEADRPVSLTNTPEEPLIVTKFYFQEDQRRRPKGRGKRRREKQRPTD", "REPORTED_VALUE": 43.5}
{"BINDER": "PDGF-BB (murine wild-type platelet-derived growth factor-BB) (ligand, UniProt P31240 82-190, looked up, also called wild-type PDGF-BB) SLGSLAAAEPAVIAECKTRTEVFQISRNLIDRTNANFLVWPPCVEVQRCSGCCNNRNVQCRASQVQMRPVQVRKIEIVRKKPIFKKATVTLEDHLACKCETIVTPRPVT", "REPORTED_VALUE": 206}
